Ref: PubChem BioAssay AID328

Give T/C for every item shown.
Tested on: BDF1 mice, P388 leukemia ip, median survival T/C
assayDetails: NCI In Vivo Anticancer Drug Screen. Data for tumor model P388 Leukemia (intraperitoneal) in B6D2F1 (BDF1) mice
measurementConditions: endpoint: median survival time; dose: 50.0 mg/kg/injection; schedule: Q04DX003 (ip); vehicle: Klucel (hydroxypropylcellulose) (HPC); higher = longer survival
Inconclusive results and toxic doses are left out.

Here is how some compounds turned out for T/C.
compound: Cc1cc(N(CCCl)CCCl)ccc1C=Nc1cccnc1
systemUnderTest: BDF1 mice, P388 leukemia ip, median survival T/C
assayMetric: T/C
measuredValue: 100 % of control
--
compound: CC1(O)c2cccc3c2C2(O)c4c1cccc4C(C)(O)c1cccc(c12)C3(C)O (configuration not stated)
systemUnderTest: BDF1 mice, P388 leukemia ip, median survival T/C
assayMetric: T/C
measuredValue: 100 % of control

Quick request: T/C for each listed item, please.
1. O=C1C(C(O)c2ccccc2)SC(c2ccccc2)N1c1ccccc1 (configuration not stated)
2. C=CCNC(=S)Nc1cc(Cl)ccc1C
3. C=CC(=O)NC1CCCCC1
4. C#CCOC(=O)NCCC
5. CC(C)Cc1c(N)nc(=O)[nH]c1C(=O)O

Data returned:
1. 96 % of control
2. 95 % of control
3. 90 % of control
4. 95 % of control
5. 109 % of control

Hi! Can you tell me T/C for each of these compounds?
1. O=[N+]([O-])c1ccc(S(=O)(=O)OCc2ccccc2OS(=O)(=O)c2ccc([N+](=O)[O-])cc2)cc1
2. Cc1c(C(=O)O)nc(/C=C/C(Cl)(Cl)Cl)[nH]c1=O
3. O=C(O)c1ccccc1C(=O)Nc1cc(Cl)ccc1Cl
4. O=C(O)CCC(=O)c1cccc2ccccc12
5. CC(C)=CCNc1ncnc2c1ncn2C1OC(CO)C(O)C1O (configuration not stated)

Data returned:
1. 100 % of control
2. 100 % of control
3. 91 % of control
4. 104 % of control
5. 95 % of control

Below is a list of compounds. For each, state its recorded T/C.
1. O=C1N(Cl)C(=O)C(c2ccccc2)(c2ccc(F)cc2)N1Cl (configuration not stated)
2. O=C1C(c2ccccc2)=S=C2Sc3ccccc3N12
3. CCN(CC)CCCC#CCN1CCCCC1
4. CCN(CC)c1ccc(C(=C(c2ccc(N(CC)CC)cc2)c2ccc(N(CC)CC)cc2)c2ccc(N(CC)CC)cc2)cc1
5. ClC(c1ccccc1)C1(Br)C=c2ccccc2=C1 (configuration not stated)

Data returned:
1. 100 % of control
2. 90 % of control
3. 91 % of control
4. 100 % of control
5. 95 % of control
